Hi there, I'd appreciate the recorded EC50 for every entry that follows.
- Test system: Human immunodeficiency virus 1
- Test Details: Antiviral activity against HIV1 NL4-3 infected in human HeLa cells expressing CD4/CCR5-LTR-beta-gal genes assessed as blockade of viral infection by X-gal staining based MAGI method
- Format: functional, organism-based
- Recorded Conditions: Human immunodeficiency virus 1, NL4-3, HeLa
Your answer should be a plain number; it is taken to be in nM.

"H-WEEWDKKIEEYTKKIEELIKKSEEQQKKNEEELKK-OH" on Human immunodeficiency virus 1 gives EC50 = 2.43

"Ac-WEEWDKKIEEYTKKIEELIKKSEEQQKKNEEELKK-NH2" on Human immunodeficiency virus 1 gives EC50 = 0.5
